# tgt: human CD33 P72A (human, UniProt P20138 18-364)
# Sequence (P20138 18-364 P72A limits assumed): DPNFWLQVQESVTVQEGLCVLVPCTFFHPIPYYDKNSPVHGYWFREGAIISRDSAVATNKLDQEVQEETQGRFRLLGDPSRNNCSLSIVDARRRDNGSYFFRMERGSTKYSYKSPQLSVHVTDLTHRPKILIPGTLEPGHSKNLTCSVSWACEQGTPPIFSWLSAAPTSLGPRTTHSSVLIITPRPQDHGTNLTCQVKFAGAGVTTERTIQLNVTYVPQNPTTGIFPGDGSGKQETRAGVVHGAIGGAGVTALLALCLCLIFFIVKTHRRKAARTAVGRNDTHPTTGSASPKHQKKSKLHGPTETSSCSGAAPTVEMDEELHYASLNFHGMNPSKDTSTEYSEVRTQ
# protocol-text: alanine scan, flow cytometry;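 also: HEK293-T cells transiently expressing single-residue alanine mutants of CD33 (alanine swapped to serine), antibody binding read by fluorescence in duplicate, background-subtracted, expressed relative to wild-type CD33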
// reported Mean % WT Binding for each item listed
experimental-endpoint: Mean % WT Binding (% WT)

| binder | experimental-endpoint | display-unit | reported-measurement |
| --- | --- | --- | --- |
| Refmab #4 (antibody, V domains shown, Full-length format is human IgG1 Fc silent (PG-LALA); The alanine scan used IgG or Fab) VH: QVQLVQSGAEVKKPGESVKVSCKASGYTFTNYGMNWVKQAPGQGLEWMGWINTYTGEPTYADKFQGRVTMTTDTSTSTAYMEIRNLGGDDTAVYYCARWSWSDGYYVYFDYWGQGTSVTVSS VL: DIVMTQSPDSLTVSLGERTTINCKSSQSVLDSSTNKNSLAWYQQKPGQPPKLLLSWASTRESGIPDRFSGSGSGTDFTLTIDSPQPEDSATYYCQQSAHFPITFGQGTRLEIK | Mean % WT Binding | % WT | 94.6 |
| Refmab #3 (antibody, V domains shown, Full-length format is human IgG1 Fc silent (PG-LALA); The alanine scan used IgG or Fab) VH: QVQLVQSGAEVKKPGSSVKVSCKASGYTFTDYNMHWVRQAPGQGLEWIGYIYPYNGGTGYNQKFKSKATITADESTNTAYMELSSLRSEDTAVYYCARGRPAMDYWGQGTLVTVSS VL: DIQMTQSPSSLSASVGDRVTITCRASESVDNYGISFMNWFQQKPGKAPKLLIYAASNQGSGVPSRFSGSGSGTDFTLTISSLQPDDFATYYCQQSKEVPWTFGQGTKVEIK | Mean % WT Binding | % WT | 108 |
| Refmab #1 (antibody, V domains shown, Full-length format is human IgG1 (Absolute Antibody Ab00283-10.0); The alanine scan used IgG or Fab; also called hP67.6) VH: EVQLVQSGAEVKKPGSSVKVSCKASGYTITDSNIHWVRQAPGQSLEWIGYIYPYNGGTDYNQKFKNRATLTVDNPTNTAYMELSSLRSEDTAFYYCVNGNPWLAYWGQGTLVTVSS VL: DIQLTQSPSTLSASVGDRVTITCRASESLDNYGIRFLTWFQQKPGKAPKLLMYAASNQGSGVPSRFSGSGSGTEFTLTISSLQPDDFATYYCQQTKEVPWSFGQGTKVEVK | Mean % WT Binding | % WT | 99.9 |
| Refmab #2 (antibody, V domains shown, Full-length format is human IgG1 Fc silent (PG-LALA); The alanine scan used IgG or Fab) VH: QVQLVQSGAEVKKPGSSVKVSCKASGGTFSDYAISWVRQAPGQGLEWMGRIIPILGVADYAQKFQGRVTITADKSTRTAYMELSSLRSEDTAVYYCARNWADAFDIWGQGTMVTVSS VL: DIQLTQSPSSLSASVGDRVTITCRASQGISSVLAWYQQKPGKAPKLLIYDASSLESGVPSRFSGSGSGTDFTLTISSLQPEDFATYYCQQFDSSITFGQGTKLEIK | Mean % WT Binding | % WT | 114 |
